# Target entity: USP25 (USP25-His6, Boston Biochem E-546) (Homo sapiens, UniProt Q9UHP3)
# Construct: His6; purchased Boston Biochem E-546
# Sequence (Q9UHP3 whole entry): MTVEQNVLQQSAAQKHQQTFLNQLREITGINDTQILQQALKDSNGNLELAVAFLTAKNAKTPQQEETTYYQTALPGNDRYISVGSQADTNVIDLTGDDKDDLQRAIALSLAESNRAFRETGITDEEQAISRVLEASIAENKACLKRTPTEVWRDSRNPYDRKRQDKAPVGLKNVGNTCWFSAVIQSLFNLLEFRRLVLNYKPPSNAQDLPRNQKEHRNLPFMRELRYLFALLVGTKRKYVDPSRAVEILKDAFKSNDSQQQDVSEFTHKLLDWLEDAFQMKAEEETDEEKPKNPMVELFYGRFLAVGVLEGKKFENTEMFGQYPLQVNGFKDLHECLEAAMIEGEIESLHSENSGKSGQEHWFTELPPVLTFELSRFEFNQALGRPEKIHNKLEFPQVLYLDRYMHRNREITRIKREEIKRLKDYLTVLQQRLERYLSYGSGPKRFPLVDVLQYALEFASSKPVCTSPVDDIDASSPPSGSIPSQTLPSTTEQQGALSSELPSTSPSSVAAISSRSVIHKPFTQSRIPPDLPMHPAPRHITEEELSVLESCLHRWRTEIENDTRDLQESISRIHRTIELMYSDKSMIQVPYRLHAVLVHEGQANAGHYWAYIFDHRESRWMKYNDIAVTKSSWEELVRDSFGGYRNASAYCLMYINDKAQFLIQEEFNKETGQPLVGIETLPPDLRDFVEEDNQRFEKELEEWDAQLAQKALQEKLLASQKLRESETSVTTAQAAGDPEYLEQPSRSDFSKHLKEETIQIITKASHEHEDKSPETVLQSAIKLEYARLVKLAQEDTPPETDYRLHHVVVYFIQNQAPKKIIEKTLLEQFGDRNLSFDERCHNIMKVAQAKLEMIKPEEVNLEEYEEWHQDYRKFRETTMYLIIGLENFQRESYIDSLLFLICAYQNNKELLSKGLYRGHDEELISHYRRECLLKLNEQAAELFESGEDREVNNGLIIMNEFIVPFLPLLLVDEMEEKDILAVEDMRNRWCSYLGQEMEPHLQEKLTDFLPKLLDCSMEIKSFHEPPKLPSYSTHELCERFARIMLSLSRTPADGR
# Assay remarks: Ubiquitin-Rhodamine 110 Assay for USP25 Activity, Example A-2
# Type: biochemical
# Experimental parameters: Ubiquitin-Rhodamine 110 assay, Example A-2; read-out: USP25 A-2 IC50 range
pIC50: −log10 of the molar value.
Listed compounds paired with reported pIC50
Readout: pIC50

COC[C@@H]1CN(c2ccc3c(c2)OC[C@H](NC(=O)c2sc4nc(C)ccc4c2N)C3)C[C@@H]1N [Example 161]: 5.70 to 6.70
Cc1ccc2c(N)c(C(=O)N[C@H]3COc4cc(N5CC[C@H]6CNC[C@H]65)ccc4C3)sc2n1 [Example 166]: 6.70 to 7.30
Cc1ccc2c(N)c(C(=O)N[C@H]3CCc4nc(N5C[C@H](C(F)F)[C@@H](N)C5)ccc4C3)sc2n1 [Example 347]: 5.70 to 6.70
N#Cc1c(N2CC3CCC(C2)N3)cc(F)c2c1CC[C@@H](NC(=O)c1cnc3c(c1)[C@H]1C[C@H]1CN3)C2 [Example 198]: 5.70 to 6.70
Cc1ccc2c(N)c(C(=O)N[C@@H]3CCc4cc(N5CCNCC5)cc(F)c4C3)sc2n1 (single isomer, unassigned) [Example 11-12]: 5.70 to 6.70
O=C(N[C@@H]1CCc2c(c(F)cc(N3CC4CCC(C3)N4)c2C(F)F)C1)c1cnc2c(c1)[C@@H]1C[C@@H]1CN2 (single isomer, unassigned) [Example 361]: < 5.70
CO[C@@H]1CN(c2ccc3c(n2)CC[C@H](NC(=O)c2sc4nc(C)ccc4c2N)C3)C[C@@H]1N [Example 269]: < 5.70

###

# Target entity: USP28 (His-tagged USP28-FL-mammalian) (Homo sapiens)
# Construct: Expression of USP28 (1-1077)-TEV-6*His (pTT5 vector); made in house; host or cells: Expi293f cells (pTT5 vector)
# Sequence (Q96RU2 1-1077): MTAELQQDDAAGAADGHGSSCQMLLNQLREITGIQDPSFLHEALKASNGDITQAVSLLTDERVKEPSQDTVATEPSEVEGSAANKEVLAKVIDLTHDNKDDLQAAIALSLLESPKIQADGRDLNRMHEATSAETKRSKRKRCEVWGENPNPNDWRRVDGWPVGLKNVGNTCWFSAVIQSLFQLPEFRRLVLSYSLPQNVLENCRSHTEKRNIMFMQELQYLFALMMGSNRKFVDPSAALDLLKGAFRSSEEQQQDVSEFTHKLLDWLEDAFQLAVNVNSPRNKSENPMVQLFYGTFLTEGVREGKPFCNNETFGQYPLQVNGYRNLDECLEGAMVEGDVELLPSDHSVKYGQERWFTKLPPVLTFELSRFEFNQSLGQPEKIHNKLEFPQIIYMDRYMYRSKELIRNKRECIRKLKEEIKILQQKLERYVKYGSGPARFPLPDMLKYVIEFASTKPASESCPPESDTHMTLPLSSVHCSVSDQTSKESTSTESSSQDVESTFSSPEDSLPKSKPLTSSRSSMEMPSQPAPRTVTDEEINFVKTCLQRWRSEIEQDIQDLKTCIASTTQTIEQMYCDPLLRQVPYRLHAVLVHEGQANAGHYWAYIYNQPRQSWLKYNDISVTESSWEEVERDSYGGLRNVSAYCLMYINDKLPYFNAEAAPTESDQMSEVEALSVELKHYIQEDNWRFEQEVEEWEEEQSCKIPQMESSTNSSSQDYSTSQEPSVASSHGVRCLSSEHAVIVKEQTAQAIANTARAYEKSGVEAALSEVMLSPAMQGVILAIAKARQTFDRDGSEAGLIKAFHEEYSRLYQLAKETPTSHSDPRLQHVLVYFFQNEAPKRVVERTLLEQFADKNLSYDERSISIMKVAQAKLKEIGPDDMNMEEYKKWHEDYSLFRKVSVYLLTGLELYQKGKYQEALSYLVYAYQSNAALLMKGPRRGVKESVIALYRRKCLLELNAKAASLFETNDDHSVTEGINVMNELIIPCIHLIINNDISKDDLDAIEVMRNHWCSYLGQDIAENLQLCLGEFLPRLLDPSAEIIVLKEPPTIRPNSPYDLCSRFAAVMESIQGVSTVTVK
# Assay remarks: Ubiquitin-Rhodamine 110 Assay for USP28 Activity, Example A-1(a)
# Assay type: biochemical
# Experimental parameters: Ubiquitin-Rhodamine 110 assay, format Example A-1(a); read-out: USP28 A-1(a) IC50 range
Readout: IC50

Cc1ccc2c(N)c(C(=O)N[C@@H]3CCc4c(F)c(N5CCNCC5)cc(F)c4C3)sc2n1 (single isomer, unassigned) [Example 22-2]: 1 to 50 nM
Cc1ccc2c(N)c(C(=O)N[C@@H]3COc4cc(N5CCNCC5)c(Cl)cc4C3)sc2n1 (single isomer, unassigned) [Example 13-6]: 1 to 50 nM
Cc1ccc2c(N)c(C(=O)N[C@@H]3CCc4cc(N5C6CNCC5C6)ccc4C3)sc2n1 (single isomer, unassigned) [Example 11-36]: 200 to 2000 nM
